Test system: Cavia porcellus
Assay protocol: Bronchodilator activity in iv dosed Hartley guinea pig assessed as inhibition of serotonin-induced bronchoconstriction administered 2 mins post serotonin challenge as 3 to 4 doses in 15 mins interval
Format: functional
Consider the following compounds; for each one, report its ED50.
One number for each entry, in mg/kg.

> print(dat)
                                   compound  recorded.endpoint    result
1  CCCCC[C@H](O)/C=C/C1CCC(=O)C1CCCCCCC(=O)O (mixture of isomers)               ED50  0.000397
2  CCCCC[C@H](O)/C=C/C1CCC(=O)[C@@H]1CCCCSCC(=O)O (mixture of isomers)               ED50   0.00129
3  CCCCC(C)(C)[C@@H](O)/C=C/C1CCC(=O)[C@@H]1CCCCSCC(=O)O (mixture of isomers)               ED50     0.032
4  CCCCC[C@](C)(O)/C=C/C1CCC(=O)[C@@H]1CCCCCCC(=O)O (mixture of isomers)               ED50   0.00699
5  CCCCC(C)(C)[C@H](O)/C=C/C1CCC(=O)[C@@H]1CCCCSCC(=O)O (mixture of isomers)               ED50    0.0523
6  CCCCC(C)(C)[C@H](O)/C=C/C1CCC(=O)[C@@H]1CCCCCCC(=O)O (mixture of isomers)               ED50    0.0259

For every record below, what is its ED50?
1. CCCCC[C@](C)(O)/C=C/C1CCC(=O)[C@@H]1CCCCSCC(=O)O (mixture of isomers)
2. CCCCC[C@@H](O)/C=C/C1CCC(=O)[C@@H]1CCCCSCC(=O)O (mixture of isomers)

1: 0.0054; 2: 0.0233
